target: UniProt:P02769; assay: Antiglycation activity in bovine serum albumin assessed as inhibition of advanced glycated end product formation after 24 hrs in presence of alpha-D-glucose by fluorescence assay
Sequence (P02769 whole entry): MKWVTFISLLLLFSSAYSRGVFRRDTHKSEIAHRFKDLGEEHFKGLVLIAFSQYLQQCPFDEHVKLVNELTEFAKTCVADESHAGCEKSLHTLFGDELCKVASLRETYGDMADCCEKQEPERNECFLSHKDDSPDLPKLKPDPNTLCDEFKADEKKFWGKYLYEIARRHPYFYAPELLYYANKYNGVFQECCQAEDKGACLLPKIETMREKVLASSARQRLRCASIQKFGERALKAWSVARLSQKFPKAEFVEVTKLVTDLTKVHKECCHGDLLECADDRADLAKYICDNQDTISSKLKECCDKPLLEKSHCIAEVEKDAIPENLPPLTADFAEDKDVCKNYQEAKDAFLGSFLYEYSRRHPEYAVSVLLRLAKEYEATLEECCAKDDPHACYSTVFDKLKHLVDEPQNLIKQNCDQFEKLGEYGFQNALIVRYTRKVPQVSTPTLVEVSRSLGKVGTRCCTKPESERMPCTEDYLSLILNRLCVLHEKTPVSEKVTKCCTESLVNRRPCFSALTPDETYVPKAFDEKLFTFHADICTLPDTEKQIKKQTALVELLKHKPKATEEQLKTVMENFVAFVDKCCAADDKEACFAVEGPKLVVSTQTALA
quantity kind: IC50 (µM)
Respond with the bare value in µM.

Some molecules with known IC50 results, for comparison:
# molecule, quantity unit, IC50
records = [
    ("O=C(CCCCCCCCc1ccccc1)c1c(O)cccc1O [MALABARICONE A]", "µM", 19.3),
    ("O=C(CCCCCCCCc1ccc(O)cc1)c1c(O)cccc1O [MALABARICONE B]", "µM", 40.3),
    ("CCCCCCCCCCCCCC(=O)c1c(O)cccc1O", "µM", 121),
    ("COc1cccc(O)c1C(=O)CCCCCCCCc1ccc(O)cc1", "µM", 104),
]

# input molecule: CCCCCCCCCCCCC(=O)c1cccc(C(=O)O)c1 ; wanted: its IC50
411

Next molecule up: CCCCCCCCCCCCCC(=O)c1c(O)cccc1OC
192

Next molecule up: O=C(CCCCCCCCc1ccc(O)c(O)c1)c1c(O)cccc1O [MALABARICONE C]
15

----------
test: Inhibition of rat intestinal alpha-glucosidase using p-nitrophenyl alpha-D-glucopyranoside as substrate pretreated for 10 mins followed by substrate addition measured after 5 mins
quantity kind: IC50 (µM)
Respond with the bare value in µM.

Some molecules with known IC50 results, for comparison:
# molecule, quantity unit, IC50
measured = [
    ("O=C(CCCCCCCCc1ccccc1)c1c(O)cccc1O", "µM", 91.4),
    ("C[C@H]1O[C@H](O[C@H]2[C@H](O)[C@@H](O)[C@@H](O[C@H]3[C@H](O)[C@@H](O)C(O)O[C@@H]3CO)O[C@@H]2CO)[C@H](O)[C@@H](O)[C@@H]1N[C@H]1C=C(CO)[C@@H](O)[C@H](O)[C@H]1O (stereo partly drawn)", "µM", 66.6),
    ("O=C(CCCCCCCCc1ccc(O)c(O)c1)c1c(O)cccc1O", "µM", 43.6),
    ("COc1cccc(O)c1C(=O)CCCCCCCCc1ccc(O)cc1", "µM", 94.5),
]

API: the following record is the query input.
# input molecule: CCCCCCCCCCCCC(=O)c1cccc(C(=O)O)c1 ; wanted: its IC50
372

----------
Target: Pancreatic alpha-amylase (Sus scrofa, UniProt P00690)
Sequence (P00690 whole entry): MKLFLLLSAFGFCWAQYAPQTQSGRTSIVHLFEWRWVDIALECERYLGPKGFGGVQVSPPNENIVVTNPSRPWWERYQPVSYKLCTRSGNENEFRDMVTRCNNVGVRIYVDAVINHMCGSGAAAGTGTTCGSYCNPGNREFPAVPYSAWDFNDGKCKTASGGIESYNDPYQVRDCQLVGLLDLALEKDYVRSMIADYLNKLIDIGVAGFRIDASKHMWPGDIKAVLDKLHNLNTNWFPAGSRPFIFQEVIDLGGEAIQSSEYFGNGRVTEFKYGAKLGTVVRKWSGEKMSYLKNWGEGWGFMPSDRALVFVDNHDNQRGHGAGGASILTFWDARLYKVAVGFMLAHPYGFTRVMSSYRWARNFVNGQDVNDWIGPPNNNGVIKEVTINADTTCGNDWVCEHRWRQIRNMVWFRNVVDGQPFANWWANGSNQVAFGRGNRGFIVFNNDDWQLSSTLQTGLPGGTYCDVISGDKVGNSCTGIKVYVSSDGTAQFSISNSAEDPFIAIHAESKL
Parameter: pIC50. Scope: all listed entries.
Schema: pIC50 number; meaning minus log10 of the concentration expressed in molar units.

# input molecule: O=C(CCCCCCCCc1ccc(O)cc1)c1c(O)cccc1O ; wanted: its pIC50
4.89

Next molecule up: O=C(CCCCCCCCc1ccccc1)c1c(O)cccc1O
4.72
